- Tested on: U2932 TK216-resistant clone 3
- test_description: cell proliferation relative to vehicle (% of vehicle); higher = less growth inhibition
- experimental_setup: 500 nM; 72 h
Where a name gives a salt, the structure may show the parent alone.
Output 1.0 for cell proliferation not less than 70; output 0.0 otherwise.

QUERY: Hi team, for `CCNc1nc(Nc2cc(F)c(C(=O)N3CCOCC3)cc2OC)ncc1C(F)(F)F` , is the recorded cell proliferation at or above 70?
RESULT: 1.0

QUERY: # bool: cell proliferation of `COC(=O)Nc1ccc(-c2nc(N3CCOCC3)c3cnn(C4CCN(C(=O)OC)CC4)c3n2)cc1` >= 70
RESULT: 0.0

QUERY: Could you tell me if the measured cell proliferation of COc1cc(Nc2ncc3c(n2)-c2ccc(Cl)cc2C(c2c(F)cccc2OC)=NC3)ccc1C(=O)O [Alisertib (MLN8237)] reaches 70 or more?
RESULT: 1.0

QUERY: Could you verify whether the entry `OCCn1cc(-c2cnc3nnn(Cc4ccc5ncccc5c4)c3n2)cn1` shows cell proliferation of no less than 70?
RESULT: 1.0

QUERY: Item CC1(C)CC[C@]2(NC(=O)C(C)(F)F)CC[C@]3(C)[C@H](C(=O)C=C4[C@@]5(C)C=C(C#N)C(=O)C(C)(C)[C@@H]5CC[C@]43C)[C@@H]2C1 [Omaveloxolone (RTA-408)] with cell proliferation of 70 or above?
RESULT: 0.0

QUERY: Please check the record CC[C@]1(O)C[C@H]2CN(CCc3c([nH]c4ccccc34)[C@@](C(=O)OC)(c3cc4c(cc3OC)N(C=O)[C@H]3[C@@](O)(C(=O)OC)[C@H](OC(C)=O)[C@]5(CC)C=CCN6CC[C@]43[C@@H]65)C2)C1 [Vincristine sulfate] and state if its cell proliferation is at or above 70.
RESULT: 0.0

QUERY: Exam item: decide whether the reported cell proliferation for CN1C(=O)C(Cc2c[nH]c3ccccc23)NC1=S (stereo not drawn) [Necrostatin-1] is at least 70.
RESULT: 1.0

QUERY: Determine whether this compound has cell proliferation no lower than 70: O=C(CCCCCCC(=O)Nc1ccccc1)NO [Vorinostat (SAHA, MK0683)]
RESULT: 1.0

====

Field: cell proliferation. Provide a value for each of the compounds that follow.
- System: U2932 TK216-resistant clone 3
- test_description: cell proliferation relative to vehicle (% of vehicle); higher = less growth inhibition
- experimental_setup: 500 nM; 72 h

QUERY: Tell me cell proliferation of `S=C(NCc1ccc2c(c1)OCO2)N1CCN(c2ncnc3c2oc2ccccc23)CC1` when tested on U2932 TK216-resistant clone 3.
RESULT: 104

QUERY: Write down the reported cell proliferation (system: U2932 TK216-resistant clone 3) of `C[C@@H]1CN(CC(=O)Nc2ccc3c(c2)Cc2cccc(-c4cc(=O)cc(N5CCOCC5)o4)c2S3)C[C@H](C)O1`
RESULT: 97

QUERY: GET cell proliferation where system = U2932 TK216-resistant clone 3 and item = `O=C(Cc1ccc(-c2ccc(OCCN3CCOCC3)cc2)cn1)NCc1ccccc1`
RESULT: 8.01

QUERY: For U2932 TK216-resistant clone 3, give the measured cell proliferation of the entry COc1cc2c(c(OC)c1OC)-c1c(cc3c(c1OC)OCO3)CC(C)C(C)C2 (stereo not given) [Schisandrin B (Sch B)]
RESULT: 97.6

QUERY: Give cell proliferation for `Cc1cc(Nc2nc(N[C@@H](C)c3ncc(F)cn3)ncc2Cl)[nH]n1` tested on U2932 TK216-resistant clone 3.
RESULT: 117
